- target.under.test: pooled human IgG
reported.endpoint: Enzyme Activity Endpoint Assay: Fab′2 (ng/µL)
The answer is to be given in ng/µL; state only the numeric part.

Inquiry: Param item = PRT-54 (protein) MANQEIRYSEVTPYHVTSVWTKGVTPPANFTQGEDVFHAPYVANQGWYDITKTFNGKDDLLCGAATAGNMLHWWFDQNKDQIDRYLEEHPEKQKINFNGEQMFDVKEAIDTKNHQLDSKLFEYFKEKAFPYLSTKHLGVFPDLVIDMFINGYRLSLTNHGPTPVKEGSKDPRGGFFDAVFTRGDQSKLLTSRHDFKEKNLKEISDLIKKELTEGKALGLSHTYANVRINHVINLWGADFDSNGNLKAIYVTDSDSNASIGMKKYFVGVNSAGKVAISAKEIKEDNIGAQVLGLFTLSTGQDSWNQTN ; retrieve measured Enzyme Activity Endpoint Assay: Fab′2.
Reply text: 0
